System: adult osteoarthritic rats
Assay: MIA-OA osteoarthritis pain model, hind limb grip force
Format: in vivo, Male Sprague Dawley rats
Details: Rattus norvegicus, ip, 480 h; 3 mg/kg i.p.; hind limb grip force (CFmax) 20 days after intra-articular MIA; % return to normalcy vs naive; mean ± SEM; read-out: % Effect
Would you mind telling me the reported inhibition in vivo at 3 mg/kg of each entry?
Reply numerically in %, unit not repeated.

Value of measured inhibition in vivo at 3 mg/kg for the entry CNC(=O)c1ccc(Oc2ccc3c(c2)CCN(C2CCC2)CC3)nc1 [Example 5, reference compound] : 74

For record `C[C@H]1CCCN1C[C@H]1C[C@@H]1c1ccc(-n2ncccc2=O)cc1` the listed inhibition in vivo at 3 mg/kg is 68

Reported inhibition in vivo at 3 mg/kg ( `O=c1cccnn1-c1ccc2nc([C@H]3C[C@@H](N4CCCCC4)C3)sc2c1` ) = 79

// recorded inhibition in vivo at 3 mg/kg for `C[C@@H]1CCCN1CCc1cc2cc(-c3ccc(C#N)cc3)ccc2o1` : 56

Entry CC(C)N1CCCN(C(=O)C2CCN(c3ccc(C(F)(F)F)nc3)CC2)CC1 [Example 7, reference compound] , inhibition in vivo at 3 mg/kg reported as 66

The molecule listed as `O=c1cccnn1-c1ccc2nc([C@H]3C[C@H](N4CCCCC4)C3)sc2c1` shows inhibition in vivo at 3 mg/kg equal to 43

Input O=C1[C@@H](O)CCN1c1ccc2nc(C3CC(N4CCCCC4)C3)sc2c1 (some centres unmarked) . Output inhibition in vivo at 3 mg/kg: 53

Summary for this molecule, CNC(=O)c1cnc(Oc2ccc3c(c2)CCN(C2CCC2)CC3)cn1 [Example 6, reference compound] : inhibition in vivo at 3 mg/kg is 90
